- System: HeLa
- experiment_notes: Induction of mitotic arrest in human HeLa cells assessed as increase in level of 4N DNA cells after 24 hrs by propidium iodide staining-based FACS analysis
- Type: functional, cell-based
measured_quantity: EC50 (µM)

Observe how each entry below is paired with its result.
CCCc1oc2ccc(NS(=O)(=O)c3cccs3)cc2c1C(=O)OCC    44.8
CCn1c2ccccc2c2cc(/C=N/NC(=O)c3cccc(Cl)c3)ccc21    4.4
Cc1ccc2nc(C)cc(SCC(=O)N/N=C/c3ccc(Cl)cc3)c2c1    18.7

I = Cc1ccccc1OCC(=O)N/N=C/c1ccc2c(c1)OCCO2
II = CCn1c2ccccc2c2cc(/C=N/NC(=O)c3ccccc3[N+](=O)[O-])ccc21
III = CCc1ccc(/C=N/NC(=O)c2sc3cc(Cl)ccc3c2Cl)s1
Hey, quick one: sort these by EC50, low to high? Output spec: a listing of the labels in the requested order. II, III, I

---

- Test system: RKO
- experiment_notes: cells
- conditions_used: Homo sapiens, 72 h
- Description: Growth inhibition of human RKO cells after 72 hrs by MTT assay
pEC50: −log10 of the molar value.
measured_quantity: pEC50

P = CCn1c2ccccc2c2cc(/C=N/NC(=O)c3cccc(Cl)c3)ccc21
Q = O=C(CCn1c2ccccc2c2ccccc21)N/N=C/c1cc(Cl)cc(Cl)c1
Looking at recorded values for pEC50, does P or Q come in lower? Pick one; state its label. Q
(Q: 4.72, P: 5.00)

---

- target_desc: Serine/threonine-protein kinase PLK1 (Homo sapiens, UniProt P53350, W414A)
- Sequence (P53350 2-603 W414A limits assumed): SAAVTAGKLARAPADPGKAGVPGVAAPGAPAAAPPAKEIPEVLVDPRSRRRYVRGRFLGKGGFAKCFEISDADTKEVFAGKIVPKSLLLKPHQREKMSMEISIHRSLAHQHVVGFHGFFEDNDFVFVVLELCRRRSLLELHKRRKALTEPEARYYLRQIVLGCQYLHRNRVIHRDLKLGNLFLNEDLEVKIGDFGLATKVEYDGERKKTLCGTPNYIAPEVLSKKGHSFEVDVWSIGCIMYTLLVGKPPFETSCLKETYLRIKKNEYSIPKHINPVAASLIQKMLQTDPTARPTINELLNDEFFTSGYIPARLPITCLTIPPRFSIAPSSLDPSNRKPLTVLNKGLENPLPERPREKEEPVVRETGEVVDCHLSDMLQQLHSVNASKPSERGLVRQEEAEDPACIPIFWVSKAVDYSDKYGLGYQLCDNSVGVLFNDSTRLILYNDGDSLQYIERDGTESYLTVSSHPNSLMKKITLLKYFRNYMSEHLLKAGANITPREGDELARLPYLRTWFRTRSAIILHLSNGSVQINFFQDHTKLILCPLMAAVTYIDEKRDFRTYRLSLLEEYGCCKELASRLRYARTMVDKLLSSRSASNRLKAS
- experiment_notes: Binding affinity to GST-tagged PLK1 PBD W414A mutant (unknown origin) by NT-647 dye-based microscale thermophoresis analysis
measured_quantity: pKd
The quantity pKd is defined as the negative base-10 logarithm of the molar concentration.

What is its pKd for Serine/threonine-protein kinase PLK1 (Homo sapiens, UniProt P53350, W414A)? Entry: Cc1ccccc1OCC(=O)N/N=C/c1ccc2c(c1)OCCO2 3.39

---

- target_desc: Serine/threonine-protein kinase PLK2 (Homo sapiens)
- Sequence (Q9NYY3 whole entry, the tested form may be a part): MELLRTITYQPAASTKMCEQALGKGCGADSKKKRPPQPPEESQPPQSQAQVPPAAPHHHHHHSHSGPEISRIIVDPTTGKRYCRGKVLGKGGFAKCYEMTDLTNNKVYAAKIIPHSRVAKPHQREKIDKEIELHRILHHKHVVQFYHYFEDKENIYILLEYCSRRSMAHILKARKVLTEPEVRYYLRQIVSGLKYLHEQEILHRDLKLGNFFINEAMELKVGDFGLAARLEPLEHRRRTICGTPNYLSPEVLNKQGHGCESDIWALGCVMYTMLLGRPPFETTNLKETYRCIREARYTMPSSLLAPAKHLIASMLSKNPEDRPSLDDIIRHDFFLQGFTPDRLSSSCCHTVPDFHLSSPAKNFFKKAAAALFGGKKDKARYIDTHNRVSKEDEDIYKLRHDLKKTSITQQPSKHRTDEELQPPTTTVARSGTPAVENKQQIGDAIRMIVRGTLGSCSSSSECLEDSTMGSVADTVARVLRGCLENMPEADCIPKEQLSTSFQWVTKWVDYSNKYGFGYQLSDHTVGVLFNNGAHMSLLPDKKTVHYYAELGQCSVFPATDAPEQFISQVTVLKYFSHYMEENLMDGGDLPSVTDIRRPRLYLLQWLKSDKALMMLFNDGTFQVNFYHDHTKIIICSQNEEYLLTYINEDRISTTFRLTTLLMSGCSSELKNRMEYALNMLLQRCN
- experiment_notes: Binding affinity to GST-tagged PLK2 PBD (355 to 685 residues) (unknown origin) by NT-647 dye-based microscale thermophoresis analysis
pKd: −log10 of the molar value.
measured_quantity: pKd

O=C(CCn1c2ccccc2c2ccccc21)N/N=C/c1cc(Cl)cc(Cl)c1    3.68
Cc1ccccc1OCC(=O)N/N=C/c1ccc2c(c1)OCCO2    3.71
Cc1ccc(/C(=N/S(=O)(=O)c2ccccc2)NC(=S)Nc2ccc([N+](=O)[O-])cc2)cc1    3.80
